Each entry below lists one item and its recorded viability increase value.
# assay_procedure: viability gain of MRP-1-high H69AR cells under doxorubicin, pilot screen, MRP-1 activator project, CellTiter-Glo, duplicate (AID 807);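 also: compound pretreatment 18-22 h then 72 h combined with doxorubicin; 0% = doxorubicin alone and 100% = vehicle without doxorubicin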
# recorded_conditions: H69AR viability with doxorubicin, CellTiter-Glo luminescence; at 10 µM; stronger effect = higher value
Just the number please, in %, no unit attached.

Guide cases for viability increase, answers given:
Item: O=C1Nc2ccc(S(=O)(=O)N3CCCCCC3)c3cccc1c23 | viability increase: -2.03

Input COc1cc(C(=O)Oc2ccccc2N)cc(OC)c1OC . Output viability increase: -2.84

The molecule listed as COc1nc(Nc2ccc(C(C)=O)cc2)nc(OC)n1 shows viability increase equal to -4.04

Per the record, Cn1c(=O)c2c(SCc3cccnc3)nc(CC(C)(C)C)nc2n(C)c1=O has viability increase of -6.27

For O=C(Nc1ccccc1C(=O)NCc1ccco1)c1ccccc1 the molecule record lists viability increase as -3.16

Attention now shifts to the item below.
Lab book: viability increase of CC(C)c1cc(NC(=O)CSc2nnc(-c3ccccc3F)n2C)on1 noted as 0.77

All values here come from PubChem BioAssay.
